Biological target: TNFR1 ectodomain (TNFR1 ECD) (Homo sapiens, UniProt P19438)
Sequence (P19438 30-211 limits assumed): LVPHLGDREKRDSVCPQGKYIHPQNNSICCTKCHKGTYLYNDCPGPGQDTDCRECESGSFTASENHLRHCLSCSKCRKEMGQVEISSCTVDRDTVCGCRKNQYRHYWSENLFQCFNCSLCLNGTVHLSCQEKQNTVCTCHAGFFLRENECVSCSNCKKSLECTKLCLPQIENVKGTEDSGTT
measuredParameter: Kd (µM)
Numbers only here, please. The scale is µM.

Challenge: Kd for COC(CNc1ccc(C(F)(F)F)cc1)COc1ccccc1COC(C)=O (stereo not shown) ?
Response given: 32

* * *

Assay: Solubility under the conditions of the L929 cytolysis assay
Format: physicochemical
Settings: L929 cytolysis assay medium, plasma or biological fluid; read-out: soluble under these conditions only up to
measuredParameter: solubility

Challenge: solubility for CC(=O)Nc1ccccc1OCC(O)CNCc1ccc(C(F)(F)F)cc1 (stereo not shown) ?
Response given: ≤ 50 µM
